Kindly supply the reported kcat/Km values for the records listed here.
Substrate: CC(=O)C=O
Experiment: Methylglyoxal reductase kinetic parameters of purified enzyme (NAD(P)H consumption at 340 nm)
Format: biochemical, Escherichia coli
Conditions: other: substrate methylglyoxal 0.1-40 mM, cofactor NADPH, 20mM Hepes (pH7.5), 30°C, pH 7.5
Entry rule: numbers only, all in M⁻¹ s⁻¹.

QUERY: Quickly give me recorded kcat/Km for Escherichia coli YahK (aldehyde reductase, Uniprot P75691), SEQ ID NO: 1 (Escherichia coli K-12) (protein) MKIKAVGAYSAKQPLEPMDITRREPGPNDVKIEIAYCGVCHSDLHQVRSEWAGTVYPCVPGHEIVGRVVAVGDQVEKYAPGDLVGVGCIVDSCKHCEECEDGLENYCDHMTGTYNSPTPDEPGHTLGGYSQQIVVHERYVLRIRHPQEQLAAVAPLLCAGITTYSPLRHWQAGPGKKVGVVGIGGLGHMGIKLAHAMGAHVVAFTTSEAKREAAKALGADEVVNSRNADEMAAHLKSFDFILNTVAAPHNLDDFTTLLKRDGTMTLVGAPATPHKSPEVFNLIMKRRAIAGSMIGGIPETQEMLDFCAEHGIVADIEMIRADQINEAYERMLRGDVKYRFVIDNRTLTD
RESULT: 8300

QUERY: Give a short answer stating reported kcat/Km for Escherichia coli YafB (2,5-diketo-D-gluconic acid reductase B, Uniprot P30863), SEQ ID NO: 99 (Escherichia coli K-12) (protein) MAIPAFGLGTFRLKDDVVISSVITALELGYRAIDTAQIYDNEAAVGQAIAESGVPRHELYITTKIWIENLSKDKLIPSLKESLQKLRTDYVDLTLIHWPSPNDEVSVEEFMQALLEAKKQGLTREIGISNFTIPLMEKAIAAVGAENIATNQIELSPYLQNRKVVAWAKQHGIHITSYMTLAYGKALKDEVIARIAAKHNATPAQVILAWAMGEGYSVIPSSTKRKNLESNLKAQNLQLDAEDKKAIAALDCNDRLVSPEGLAPEWD .
RESULT: 2060

QUERY: Tell me measured kcat/Km for Escherichia coli YeaE (Uncharacterized protein YeaE, Uniprot P76234), SEQ ID NO: 107 (Escherichia coli K-12) (protein) MQQKMIQFSGDVSLPAVGQGTWYMGEDASQRKTEVAALRAGIELGLTLIDTAEMYADGGAEKVVGEALTGLREKVFLVSKVYPWNAGGQKAINACEASLRRLNTDYLDLYLLHWSGSFAFEETVAAMEKLIAQGKIRRWGVSNLDYADMQELWQLPGGNQCATNQVLYHLGSRGIEYDLLPWCQQQQMPVMAYSPLAQAGRLRNGLLKNAVVNEIAHAHNISAAQVLLAWVISHQGVMAIPKAATIAHVQQNAAVLEVELSSAELAMLDKAYPAPKGKTALDMV please.
RESULT: 910

QUERY: Look up kcat/Km of Escherichia coli YdhF (Oxidoreductase YdhF, Uniprot P76187), SEQ ID NO: 105 (Escherichia coli K-12) (protein) MVQRITIAPQGPEFSRFVMGYWRLMDWNMSARQLVSFIEEHLDLGVTTVDHADIYGGYQCEAAFGEALKLAPHLRERMEIVSKCGIATTAREENVIGHYITDRDHIIKSAEQSLINLATDHLDLLLIHRPDPLMDADEVADAFKHLHQSGKVRHFGVSNFTPAQFALLQSRLPFTLATNQVEISPVHQPLLLDGTLDQLQQLRVRPMAWSCLGGGRLFNDDYFQPLRDELAVVAEELNAGSIEQVVYAWVLRLPSQPLPIIGSGKIERVRAAVEAETLKMTRQQWFRIRKAALGYDVP and report it.
RESULT: 350
